test system: SF-539 CNS; assay: NCI tumour cell line growth inhibition, 48 h
property_measured: GI50

molecule | GI50
O=C(N/N=C/c1ccc(F)cc1)c1ccc(C(F)(F)F)nc1Nc1cccc(C(F)(F)F)c1 | 1.82 µM
CC1=C2[C@@H](CC1)[C@]1(C)O[C@@](C3CC3)(C[C@H]1OC(=O)CO)[C@H]2OC(=O)/C=C/c1ccccc1 | 16.6 µM
C=C(Cn1c2ccccc2c(=O)c2ccccc21)c1ccc(C(=O)Nc2ccccc2N)cc1 | 3.59 µM
N#CCC1(n2cc(-c3ncnc4[nH]ccc34)cn2)CN(C2CCN(C(=O)c3ccnc(C(F)(F)F)c3F)CC2)C1 | 37.9 µM
Oc1ccccc1C=Nc1nc(OCc2ccccc2)nc2[nH]ncc12 | 22.1 µM

// moving on: another record for GI50
Short answer for c1cncc(C2ONC3=NCCN32)c1 (stereo unspecified) : GI50 was 28.9 µM

----------
system: MDA-MB-231 breast; test: NCI tumour cell line growth inhibition, 48 h; in the data active = GI50 below about 0.43 µM; inactive = the rest
Hi there, use one of these labels in your reply, thanks! 1 (yes) = active, 0 (no) = inactive

Below are worked cases with known answers.
compound | label_class
CCCCCCCCCCCCOC1C(C(CC(=O)N2CCN(Cc3ccc4c(c3)OCO4)CC2)NS(=O)(=O)c2cc(Cl)cc(Cl)c2)OC2OC(C)(C)OC21 (centres undefined) | 0 (no)
Fc1ccc(-c2nn3c(COc4ccc(Cl)cc4)nnc3s2)cc1Oc1ccccc1 | 0 (no)
N#CCC1(n2cc(-c3ncnc4[nH]ccc34)cn2)CN(C2CCN(C(=O)c3ccnc(C(F)(F)F)c3F)CC2)C1 | 0 (no)
COc1ccc(/C=C/C(C)=N/OCC(=O)Nc2ccc(Cl)cc2)cc1 | 0 (no)

Query compound follows.
IN: What was the test verdict on NC(N)=N/N=C/c1c(-c2ccncc2)nc2sc(Cl)cn12 ?
OUT: 0 (no)

----------
Consider the following compounds and their measured TGI readings.
system: SN12C renal; experiment: NCI tumour cell line growth inhibition, 48 h
Dear colleague, please return just the value in µM, with no unit written.

Short answer for O=C(OC[C@@H]1CO1)c1cccc2c(=O)c3ccccc3[nH]c12 : TGI was 1.41

----------
system: T-47D breast; assay: NCI tumour cell line growth inhibition, 48 h
Consider the following compounds and their measured log10 TGI readings.
The base-10 logarithm of TGI, taken with TGI in µM, is what appears here.

Below: 4 compounds and their reported log10 TGI.
compound | log10 TGI
CCN1CCN(c2nc(NNC(=O)c3ccccc3)nc(N3CCN(C(c4ccccc4)c4ccccc4)CC3)n2)CC1 | 1.49
CC1=C(CNO)C2=C(C)C3(CC3)[C@@](C)(O)C(=O)C2=C1 | 0.93
CC(=O)[C@]1(O)Cc2c(O)c3c(c(O)c2[C@@H](OC2CC(N)C(O)C(C)O2)C1)C(=O)c1c(OCc2ccccc2)cccc1C3=O (stereo not given in full) | 0.91
O=C1/C(=C/c2ccc(Cl)cc2)Oc2ccccc21 | 1.96

// moving on: another record for log10 TGI
Short answer for CCN(CC)CCOc1ccc2c(C)c(C(=O)OC)oc2c1C(=O)/C=C/c1ccc(OC)cc1 : log10 TGI was 1.59

----------
system: MCF7 breast; assay: NCI tumour cell line growth inhibition, 48 h
property_measured: TGI (µM)
Dear colleague, please return just the value in µM, with no unit written.

compound | units_label | TGI
CCC(=C/[C@H](C)C/C=C/C(C)=C/[C@@H](C)C(=O)[C@@H](C)[C@H](O)[C@@H](C)CC)/C=C/[C@H]1CC=CC(=O)O1 | µM | 0.0033
O=C1c2ccccc2C(=O)c2sc(Nc3cc(Cl)ccc3Cl)nc21 | µM | 3.7

Short answer for O=C(c1ccccc1)C(Br)C(Br)c1ccccc1 (stereo not given) : TGI was 7.85
